- measurement_target: Tyrosine-protein kinase HCK (Homo sapiens) (UniProt P08631)
- Sequence (P08631 2-526 limits assumed): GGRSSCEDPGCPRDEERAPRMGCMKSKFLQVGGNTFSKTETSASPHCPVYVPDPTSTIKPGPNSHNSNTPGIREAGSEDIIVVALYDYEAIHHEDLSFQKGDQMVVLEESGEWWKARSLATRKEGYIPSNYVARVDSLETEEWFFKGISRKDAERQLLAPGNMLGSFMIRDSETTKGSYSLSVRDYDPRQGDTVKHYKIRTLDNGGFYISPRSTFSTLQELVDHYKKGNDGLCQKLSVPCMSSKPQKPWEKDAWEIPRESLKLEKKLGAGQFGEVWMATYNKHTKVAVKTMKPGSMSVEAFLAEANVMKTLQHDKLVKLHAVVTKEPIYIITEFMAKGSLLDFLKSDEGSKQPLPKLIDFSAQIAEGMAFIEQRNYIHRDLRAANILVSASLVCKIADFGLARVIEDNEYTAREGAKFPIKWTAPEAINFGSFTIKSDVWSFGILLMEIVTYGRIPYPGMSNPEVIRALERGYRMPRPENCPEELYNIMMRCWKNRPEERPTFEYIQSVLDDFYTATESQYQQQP
- condition_label: at 10 µM
Classification by residual activity | ranges: low-valued: < 30%; mid-valued: ≥ 30% and < 60%; high-valued: ≥ 60%

Some solved entries appear below for comparison.
# substance_smiles, class_label
rows = [
    ("CC(C)[C@H](CO)Nc1nc(Nc2cccc(Cl)c2)c2ncn(C(C)C)c2n1", "low-valued"),
    ("CC(C)(C)c1cc(C=C(C#N)C#N)cc(Br)c1O", "low-valued"),
    ("COc1cc(OC)c(/C=C2\\C(=O)Nc3ccccc32)c(OC)c1", "high-valued"),
    ("O=[N+]([O-])/C=C/c1ccc2c(c1)OCO2", "high-valued"),
]

GET /class?item= "O=C1NC(=O)c2c1c1c3ccccc3n3c1c1c2c2ccccc2n1C1CCC3O1" high-valued

GET /class?item= "N/C(=N\[N+](=O)[O-])N/N=C\c1ccc(-c2cccc([N+](=O)[O-])c2)o1" mid-valued

GET /class?item= "COC(=O)[C@@]1(O)C[C@H]2O[C@]1(C)n1c3ccccc3c3c4c(c5c6ccccc6n2c5c31)C(=O)NC4" low-valued

GET /class?item= "COc1ccc2c(c1)/C(=C/c1cnc[nH]1)C(=O)N2" mid-valued

GET /class?item= "CCc1nc(-c2ccc(OC)cc2)[nH]c1-c1ccncc1" high-valued

----------
- measurement_target: Tyrosine-protein kinase JAK3 (Homo sapiens) (UniProt P52333)
- Sequence (P52333 whole entry): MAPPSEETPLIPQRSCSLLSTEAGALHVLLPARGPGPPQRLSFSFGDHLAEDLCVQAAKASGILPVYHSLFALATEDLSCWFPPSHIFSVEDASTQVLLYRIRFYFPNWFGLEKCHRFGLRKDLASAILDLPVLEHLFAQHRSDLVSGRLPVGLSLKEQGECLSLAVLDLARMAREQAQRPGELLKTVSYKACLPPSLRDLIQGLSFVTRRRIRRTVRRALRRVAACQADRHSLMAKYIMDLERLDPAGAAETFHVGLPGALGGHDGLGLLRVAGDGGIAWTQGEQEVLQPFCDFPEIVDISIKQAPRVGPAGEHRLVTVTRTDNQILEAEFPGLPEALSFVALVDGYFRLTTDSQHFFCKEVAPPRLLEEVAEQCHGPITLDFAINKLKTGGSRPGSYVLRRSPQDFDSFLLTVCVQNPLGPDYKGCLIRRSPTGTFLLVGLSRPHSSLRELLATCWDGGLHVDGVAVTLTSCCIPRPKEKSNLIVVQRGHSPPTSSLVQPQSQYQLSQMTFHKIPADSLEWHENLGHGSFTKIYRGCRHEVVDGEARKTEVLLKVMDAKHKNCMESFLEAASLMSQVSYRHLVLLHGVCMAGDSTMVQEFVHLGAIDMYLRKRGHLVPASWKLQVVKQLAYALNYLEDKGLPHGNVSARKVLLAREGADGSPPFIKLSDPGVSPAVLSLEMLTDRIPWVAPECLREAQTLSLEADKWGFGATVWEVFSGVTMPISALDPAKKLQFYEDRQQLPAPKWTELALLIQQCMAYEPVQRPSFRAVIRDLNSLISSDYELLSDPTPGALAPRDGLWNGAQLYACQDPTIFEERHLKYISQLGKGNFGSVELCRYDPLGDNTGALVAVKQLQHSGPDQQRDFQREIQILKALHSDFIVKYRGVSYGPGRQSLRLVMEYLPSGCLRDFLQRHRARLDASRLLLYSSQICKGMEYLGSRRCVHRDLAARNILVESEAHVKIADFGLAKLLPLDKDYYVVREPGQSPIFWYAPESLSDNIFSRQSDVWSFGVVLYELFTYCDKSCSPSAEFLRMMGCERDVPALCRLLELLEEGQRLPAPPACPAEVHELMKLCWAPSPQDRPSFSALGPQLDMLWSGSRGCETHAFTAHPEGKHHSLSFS
- condition_label: at 1 µM
Would you mind telling me the reported residual activity of each entry?
One number for each entry, in %.

# example entries with known answers
# compound, value_units, residual activity
data = [
    ("O=C1Nc2ccc3ncsc3c2/C1=C/c1c[nH]cn1", "%", 16),
    ("COc1ccc2c(c[n+](C)c3c4cc5c(cc4ccc23)OCO5)c1OC", "%", 91),
    ("COC(=O)[C@@]1(O)C[C@H]2O[C@]1(C)n1c3ccccc3c3c4c(c5c6ccccc6n2c5c31)C(=O)NC4", "%", 0),
    ("COc1ccc2c(c1)/C(=C/c1cnc[nH]1)C(=O)N2", "%", 48),
    ("CCn1cnc2c(Nc3cccc(Cl)c3)nc(N[C@@H]3CCCC[C@@H]3N)nc21", "%", 112),
    ("O=C1NC(=O)c2c1c1c3ccccc3n3c1c1c2c2ccccc2n1C1CCC3O1", "%", 8),
    ("O=c1[nH]c2ccccc2n1C1CCN(Cc2ccc(-c3nc4cc5[nH]cnc5cc4nc3-c3ccccc3)cc2)CC1", "%", 110),
    ("CCc1nc(-c2ccc(OC)cc2)[nH]c1-c1ccncc1", "%", 113),
]

Please give residual activity, item by item, for the list that follows.
1. C[S+]([O-])c1ccc(-c2nc(-c3ccc(F)cc3)c(-c3ccncc3)[nH]2)cc1 (stereo not given)
2. COc1cc(OC)c(/C=C2\C(=O)Nc3ccccc32)c(OC)c1

1: 107; 2: 105

----------
Would you mind telling me the reported residual activity of each entry?
- measurement_target: MAP kinase-activated protein kinase 3 (Homo sapiens) (UniProt Q16644)
- Sequence (Q16644 whole entry, looked up): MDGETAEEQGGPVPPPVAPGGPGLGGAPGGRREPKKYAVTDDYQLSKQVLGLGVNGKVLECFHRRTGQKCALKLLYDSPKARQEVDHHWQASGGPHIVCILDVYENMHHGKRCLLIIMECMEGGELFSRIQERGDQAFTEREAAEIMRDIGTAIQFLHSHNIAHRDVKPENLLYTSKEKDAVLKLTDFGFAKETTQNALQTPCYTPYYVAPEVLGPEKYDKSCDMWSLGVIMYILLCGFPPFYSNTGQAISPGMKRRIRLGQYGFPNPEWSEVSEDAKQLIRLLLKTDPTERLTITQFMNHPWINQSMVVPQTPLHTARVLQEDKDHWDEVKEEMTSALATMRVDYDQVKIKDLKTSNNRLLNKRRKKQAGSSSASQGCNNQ
- condition_label: at 10 µM
One number for each entry, in %.

# substance_smiles, measurement_target, residual activity / %
rows = [
    ("O=c1[nH]c2ccccc2n1C1CCN(Cc2ccc(-c3nc4cc5[nH]cnc5cc4nc3-c3ccccc3)cc2)CC1", "MAP kinase-activated protein kinase 3 (Homo sapiens) (UniProt Q16644)", 90),
    ("O=C1NC(=O)c2c1c1c3ccccc3n3c1c1c2c2ccccc2n1C1CCC3O1", "MAP kinase-activated protein kinase 3 (Homo sapiens) (UniProt Q16644)", 95),
    ("COc1ccc2c(c[n+](C)c3c4cc5c(cc4ccc23)OCO5)c1OC", "MAP kinase-activated protein kinase 3 (Homo sapiens) (UniProt Q16644)", 53),
    ("CCn1cnc2c(Nc3cccc(Cl)c3)nc(N[C@@H]3CCCC[C@@H]3N)nc21", "MAP kinase-activated protein kinase 3 (Homo sapiens) (UniProt Q16644)", 88),
]

Please give residual activity, item by item, for the list that follows.
1. CCc1nc(-c2ccc(OC)cc2)[nH]c1-c1ccncc1
2. COc1ccc2c(c1)/C(=C/c1cnc[nH]1)C(=O)N2
3. O=[N+]([O-])/C=C/c1ccc2c(c1)OCO2
4. CC(C)(C)c1cc(C=C(C#N)C#N)cc(Br)c1O

1. 118
2. 123
3. 83
4. 69

These data points were gathered from ChEMBL document CHEMBL2218924.
